B1: RSPH3 (parent)
chain: QRLEEQERRHREEKERRKKQQWEI

Variants of: B1
Assay: protein stability index of a GFP-peptide fusion (GPS, HEK-293T) (PSI 1-6); higher = more stable;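 note: lentivirally expressed fusions sorted by FACS into six bins by GFP to DsRed ratio, PSI derived from sequencing read proportions per bin multiplied by bin number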
Conditions: c terminus: a fixed tail appended
reported.property: protein stability index

These solved cases illustrate the format of a correct answer.
1) QRLEEQERRHREEKIRRKKQQWEI [E15I]	4.09
2) QRLEEQERRHREEKERRKKQIWEI [Q21I]	4.03
3) QRLEEQERRHREEKERRKKQQWCI [E23C]	4.03
4) QRLEEQERRHREEKMRRKKQQWEI [E15M]	4.02
5) QRLVEQERRHREEKERRKKQQWEI [E4V]	3.99
6) QRLEEQERRHREEKERRKKQQWQI [E23Q]	3.95
7) QRLEEQERRHREEKERRKFQQWEI [K19F]	4.02

Kindly consider the entry below.
Could you tell me which protein stability index is on file for QRLEEQERRHRPEKERRKKQQWEI [E12P] ?
4.07
